Tested on: Jurkat cells
Assay: Adaptation to G2 cell cycle arrest (G1 increment) in X-ray pre-arrested Jurkat cells, flow cytometry
Assay type: cell-based, human
Conditions: Homo sapiens, Jurkat, 24 h, Table 2; concentration causing half-maximal increase of % cells in G1 phase (G1 increment); Jurkat pre-arrested by 10 Gy X-ray, 24 hours with compound
pIC50: −log10 of the molar value.
REPORTED METRIC: pIC50

- STRUCTURE NOTATION: "CC1=C(C)C(=O)N(Nc2cc(Cl)c(C(F)(F)F)c(-c3ccccc3)n2)C1=O"
  pIC50: 6.35

1. CC1=C(C)C(=O)N(Nc2cc(CN3CCN(C(=O)c4ccc(F)cc4)CC3)c3ccc(Br)cc3n2)C1=O
2. CC1=C(C)C(=O)N(Nc2cc(Cl)c3cccc(Cl)c3n2)C1=O
Input line: Quick one: lower pIC50, 1 or 2 ? Which one? Tell me its label.
Output line: 1
(1: 6.33, 2: 6.70)

###

Tested on: Jurkat cells
Test: Adaptation to G2 cell cycle arrest (G1 increment) in X-ray pre-arrested Jurkat cells, flow cytometry
Assay type: cell-based, human
Details: Homo sapiens, Jurkat, 24 h, Table 1; concentration causing half-maximal increase of % cells in G1 phase (G1 increment); Jurkat pre-arrested by 10 Gy X-ray, 24 hours with compound
pIC50: −log10 of the molar value.
REPORTED METRIC: pIC50

- COMPOUND: "CC1=C(C)C(=O)N(Nc2ccc3cc(Cl)ccc3n2)C1=O"
  pIC50: 5.30
- COMPOUND: "CC1=C(C)C(=O)N(N2CCc3cc(C)ccc32)C1=O"
  pIC50: 4.22
- COMPOUND: "CC1=C(C)C(=O)N(Cc2ccc(C(F)(F)F)cn2)C1=O"
  pIC50: 4.22
- COMPOUND: "CSCc1cc(C(F)(F)F)ccc1NN1C(=O)C(C)=C(C)C1=O"
  pIC50: 5.30
- COMPOUND: "CC1=C(C)C(=O)N(Nc2nc3ccccc3s2)C1=O"
  pIC50: 5.30
- COMPOUND: "CC1=C(C)C(=O)N(Nc2ccc3ccccc3c2)C1=O"
  pIC50: 5.00

P. COc1nc(NN2C(=O)C(C)=C(C)C2=O)ccc1C(F)(F)F
Q. CC1=C(C)C(=O)N(Nc2nc3c(Cl)cccc3s2)C1=O
R. CC1=C(C)C(=O)N(Nc2ccc(C)c(C(F)(F)F)c2)C1=O
S. CC1=C(C)C(=O)N(Nc2cc(C(C)(C)C)ccc2Br)C1=O
T. CC1=C(C)C(=O)N(Nc2ccc3ccccc3n2)C1=O
Input line: Ascending by pIC50, please: list the compounds accordingly. Give me the labels in the order the question wants.
Output line: P, S, T, R, Q

a. CC1=C(C)C(=O)N(Nc2cc(Cl)cc(Cl)c2)C1=O
b. CC1=C(C)C(=O)N(n2ccc3cc(C)ccc32)C1=O
Input line: Quick one: lower pIC50, a or b ? Indicate which entry you chose by stating its label.
Output line: b

a. CC1=CC(=O)N(Nc2ccc(C(F)(F)F)c(Cl)n2)C1=O
b. CC1=C(C)C(=O)N(Oc2ccc(C)cc2)C1=O
c. CC1=C(C)C(=O)N(Nc2ccc(Cl)c(C(F)(F)F)c2)C1=O
d. CC1=C(C)C(=O)N(N(C)c2cc(C(F)(F)F)cc(C)n2)C1=O
Input line: rank_up(items): orders items by reported pIC50 in ascending numerical order. In your reply, arrange the labels in the requested order.
Output line: b, a, d, c
(b: 4.22, a: 4.82, d: 5.30, c: 5.60)

A. CC1=C(C)C(=O)N(Cc2ccc(Cl)c(C(F)(F)F)c2)C1=O
B. CC1=C(C)C(=O)N(Nc2cccc(C(C)(C)C)c2)C1=O
C. CC1=C(C)C(=O)N(N(C)c2ccc(C(F)(F)F)c(Cl)n2)C1=O
D. CC1=C(C)C(=O)N(Nc2ccc(C)cc2C)C1=O
Input line: Hey, can you sort those compounds up there by pIC50, smallest first? API: response body holds the labels in the requested order.
Output line: A, D, B, C

A. CC1=C(C)C(=O)N(Cc2ccc(C(F)(F)F)cc2Cl)C1=O
B. CC1=C(C)C(=O)N(Nc2cc(C(F)(F)F)cc(C(F)(F)F)c2)C1=O
Input line: I would appreciate it if you could say which entry, A or B , has the lower pIC50 value. Give the label of your selection.
Output line: A
(A: 5.00, B: 5.60)

P. CC1=C(C)C(=O)N(Nc2ccc(C)c(C)c2)C1=O
Q. CC1=C(C)C(=O)N(Nc2nc3ccc(Cl)cc3s2)C1=O
R. CC1=C(C)C(=O)N(Nc2ccc3cccc(Cl)c3n2)C1=O
Input line: Arrange these compounds by their pIC50, starting with the largest number. Answer by writing out the labels in the requested order.
Output line: R, Q, P

1. COC1=C(C)C(=O)N(Cc2ccc(C(F)(F)F)cc2)C1=O
2. CC1C(=O)N(Nc2ccc(C(F)(F)F)cn2)C(=O)C1Sc1ccccc1 (stereo not shown)
3. CC1=C(C)C(=O)N(Nc2ccc(C(F)(F)F)cn2)C1=O
Input line: Rank by pIC50 (largest to smallest). Lab note: record answer as labels in requested order.
Output line: 3, 1, 2

P. CC1=C(C)C(=O)N(Nc2ccc(C(F)(F)F)cc2Cl)C1=O
Q. CC1=C(C)C(=O)N(Nc2nc(Cl)ccc2C(F)(F)F)C1=O
R. CC1=C(C)C(=O)N(Nc2cc(C(F)(F)F)cc(C)n2)C1=O
S. CC1=C(C)C(=O)N(Nc2ccc(Br)c(C(F)(F)F)c2)C1=O
Input line: Reorder the items by pIC50, least to greatest. Record the ranking as a list of labels in the requested order.
Output line: Q, P, R, S
